target: pooled human IgG (human IgG1,2,3 and 4)
MEASURED ATTRIBUTE: Enzyme Activity Endpoint Assay: Fc
Write the figure, then the unit, nothing else.

Consider the protein shown here: PRT-92 (protein) MANQEIRYSEVTPYTITSVWTKGVTPPADFTQGEDVFHAPYVANQGWYDITKTFNGKDDLLCGAATAGNMLHWWFDQNKEKIEAYLKKHPEKQKIMFGDQELLDVRKAINTKDDQTNSELFNYFRDKAFPNLSARRLGVMPDLVLDMFINGYYLNVYKTQTTDVNRTYQEKDKRGGIFDAVFTRGDQSKLLTSRHDFKEKNLKEISDLIKQELTEGKALGLSHTYANVRINHVINLWGADFDSEGNLKAIYVTDSDSNASIGMKKYFVGVNSAGKVAISAKEIKEDNIGAQVLGLFTLSTGQDIWNQTN What is its recorded Enzyme Activity Endpoint Assay: Fc?
104 ng/µL

For PRT-466 (protein) MITSVWTKGVTPPTDFIKGEDVFHAPYKAGQGWYDITKAFDGGDDLLCGAATAGNMLHWWFDQNKDQIERYLKEHPEKQKINFNGEQMFDVKEAIDTKDSQTNSELFNYFKEKAFPYLSTKHLGVFPDHVLDMFINGYRLSLTNHGPTPVKRQEKDPRGGIFDAVFGRGDQTKLLTSRHDFKEKTLNEISQLIKQELTEGKALGLSHTYANVRINHVINLWGADFDAEGNLEAIYVTDSDSNASIGMKKYFVGVNSAGKVAISAKEIKEDNIGAQVLGLFTLSTGQKIWNKTNLEHHHHHH then?
362 ng/µL
